experiment: NCI Yeast Anticancer Drug Screen. Data for the sgs1 mgt1 strain (AID 161);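 note: 0% = growth of cultures given vehicle only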; settings: S. cerevisiae sgs1 mgt1 strain, at 5.0 µM (retest, dose inferred, filed as 0.5), stronger effect = higher value
About 79,000 compounds went through this panel and 15% of them were active in at least one assay; those are over-represented in the sample as a whole.
Below, each entry is listed with its recorded growth inhibition.
MEASURED_METRIC: growth inhibition (%)

COMPOUND	UNIT_INFO	VALUE_REPORTED
COc1ccc(C(=O)C(Br)CS(=O)(=O)c2ccc(C)cc2)cc1 (configuration not stated)	%	71
CCOC(=O)C(Br)c1nc2ccccc2[nH]c1=O (configuration not stated)	%	2
COC(=O)/C(=C/c1ccc(/C=C(/C(=O)O)c2ccc(OC)cc2)o1)c1ccccc1	%	0
Cc1ccc2c(-c3ccccc3)c3ccccc3cc2c1C	%	8
O=C(/C=C/c1ccccc1)c1ccc(NCc2nc3ccccc3[nH]2)cc1	%	-23
O=NN(CCCl)C(=O)Nc1cc(=O)[nH]c(SCc2ccccc2)n1	%	-10
O=[N+]([O-])c1ccc(CCCl)c(CCl)c1	%	-51
O=c1onc(-c2ccc(Cl)cc2)c2ccccc12	%	7
O=C(Nc1ccc(Cl)cc1)OCC1C2C=CC(C2)C1CO (configuration not stated)	%	2
O=C(NC(=Nc1ccccc1)SCCSC(=Nc1ccccc1)NC(=O)c1ccccc1)c1ccccc1	%	10
N/C(=N\N=C/c1ccc(O)c(O)c1O)NO	%	-7
CC1(C)[C@H]2CC[C@]1(C)[C@H](OC(=O)NNC(=O)O[C@@H]1C[C@@H]3CC[C@@]1(C)C3(C)C)C2	%	26
CC(C)(C)C(=O)CC(Cc1nccc2ccccc12)c1ccco1 (configuration not stated)	%	-3
O=[N+]([O-])c1cc(NC(=S)SCc2ccccc2)ccc1Cl	%	92
O=C(/C=C/c1ccc(O)cc1)c1cc(Cl)ccc1O	%	36
COc1cc(C(=O)[O][Sn]([c]2ccccc2)([c]2ccccc2)[c]2ccccc2)cc(OC)c1OC	%	99
CCC(CC)N(CCNc1cc(OC)cc2cccnc12)CC(C)C	%	4
CC/C(=N\OC(=O)Nc1ccccc1)c1ccc(OC(=O)Nc2ccccc2)cc1	%	2
O=Cc1[nH]c(=S)[nH]c(=O)c1Cc1cccc2ccccc12	%	11
Nc1ccccc1Nc1c([N+](=O)[O-])cc(C(F)(F)F)cc1[N+](=O)[O-]	%	48
COc1cc2c(cc1OC)[C@H]1C(=O)c3cc4c(cc3[C@H]1N(C)C2=O)OCO4	%	-8
NC(=S)Nc1cccc(C(F)(F)F)c1	%	-10

---

test: NCI Yeast Anticancer Drug Screen. Data for the rad50 strain (AID 155);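 note: 0% = growth of vehicle-only cultures of the same strain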; conditions: S. cerevisiae rad50 strain growth inhibition; at 50.0 µM
This is part of a sample that, as a whole, favours compounds with a hit. Of some 79,000 tested, about 15% had one in any assay. Activity calls are given as the source filed them. No stated cut-off is given here; in the data, active means growth inhibition above about 70%; inactive means the rest.
Outcomes: active, inactive

MOLECULE	GROUP
CCC[CH2][Ge]([CH2]CCC)([CH2]CCC)[O]C(=O)CC(=O)c1ccccc1	inactive
CCCCCCCCCCCCCCCCOS(=O)(=O)O	active
O=Nc1c(O)c2ccccc2c2ccc([N+](=O)[O-])cc12	inactive
COc1ccc(OC)c(CC(Cl)(C#N)C#N)c1	active
C=C(CSCCCCCCCCCCCC)C(=O)O	active
CC/C(=N\OC(=O)Nc1ccccc1)c1ccc(OC(=O)Nc2ccccc2)cc1	inactive
COc1ccc2ccnc(Cc3ccc(OCc4ccccc4)c(OC)c3)c2c1	active
[O-]c1c2cc(-[n+]3c(-c4ccccc4)cc(-c4ccccc4)cc3-c3ccccc3)cc1CO[C@@H](c1ccccc1)[C@H](c1ccccc1)OCc1cccc(n1)CO[C@@H](c1ccccc1)[C@H](c1ccccc1)OC2	active
COC(O)C12OC3CO[Si](C(C)C)(C(C)C)O[Si](C(C)C)(C(C)C)OC3C1Oc1nc(=O)ccn12 (centres undefined)	active
COc1ccccc1/C=C/c1ccnc2ccccc12	active
O=[N+]([O-])c1ccc(/C=N/NC2=CS(=O)(=O)C=C2)cc1	inactive
Cc1nc2c(Cl)cccc2c2ccccc12	active
Cc1cc(C)nc(/C=C/c2ccccc2)c1	active
C1CCC(C2CCC(N3CCCCC3)CC2)CC1 (centres undefined)	active
Cc1nn(C)c2ccc3ccccc3c(=O)c12	active
O=[N+]([O-])c1ccc(N/N=C/CCCCCCCCCCBr)c([N+](=O)[O-])c1	inactive
CCCCCCCCCCCCCCCCCc1nnc(N)o1	inactive
CCCCCCCCCCCC(=O)OCCN(CC)CC	active
CCOC1NC(=S)N(C2CCCCC2)C1(C)C (centres undefined)	inactive
CC1CCCC(C(c2c[nH]c3ccccc23)c2c[nH]c3ccccc23)C1=O (centres undefined)	active
N#CCCN(CCC#N)Cc1cc(-c2ccccc2)ccc1O	active
O=[N+]([O-])C1CCCC(C2=CSC3CCCCC3N2)C1 (centres undefined)	inactive
Oc1c(Br)cc(Br)cc1C=Nc1ccc(Br)cc1	active
CCCCCCCCCCCCCCN1CCSCC1	active
